Known melting point of a selection of compounds

* CC(Oc1ccc2nc(NC(=O)NCCN3CCOCC3)sc2c1)c1c(Cl)cccc1Cl (stereo not drawn) [Example 17] | 165 to 168 °C
* CC(Oc1cc2sc(NC(=O)NCCN3CCOCC3)nc2cc1F)c1c(Cl)cccc1Cl (stereo not drawn) [Example 29] | 200 to 205 °C

Please examine the following record next.
Query :: // lookup melting point for CC(Oc1cc2sc(NC(=O)CN3CCNCC3)nc2cc1F)c1c(Cl)ccc(F)c1Cl (stereo not drawn) [Example 69]
Result :: 188 to 190 °C

---

# target of assay: MET (Homo sapiens, UniProt P08581)
# Construct: endogenous in cells
# Sequence (P08581 25-1390): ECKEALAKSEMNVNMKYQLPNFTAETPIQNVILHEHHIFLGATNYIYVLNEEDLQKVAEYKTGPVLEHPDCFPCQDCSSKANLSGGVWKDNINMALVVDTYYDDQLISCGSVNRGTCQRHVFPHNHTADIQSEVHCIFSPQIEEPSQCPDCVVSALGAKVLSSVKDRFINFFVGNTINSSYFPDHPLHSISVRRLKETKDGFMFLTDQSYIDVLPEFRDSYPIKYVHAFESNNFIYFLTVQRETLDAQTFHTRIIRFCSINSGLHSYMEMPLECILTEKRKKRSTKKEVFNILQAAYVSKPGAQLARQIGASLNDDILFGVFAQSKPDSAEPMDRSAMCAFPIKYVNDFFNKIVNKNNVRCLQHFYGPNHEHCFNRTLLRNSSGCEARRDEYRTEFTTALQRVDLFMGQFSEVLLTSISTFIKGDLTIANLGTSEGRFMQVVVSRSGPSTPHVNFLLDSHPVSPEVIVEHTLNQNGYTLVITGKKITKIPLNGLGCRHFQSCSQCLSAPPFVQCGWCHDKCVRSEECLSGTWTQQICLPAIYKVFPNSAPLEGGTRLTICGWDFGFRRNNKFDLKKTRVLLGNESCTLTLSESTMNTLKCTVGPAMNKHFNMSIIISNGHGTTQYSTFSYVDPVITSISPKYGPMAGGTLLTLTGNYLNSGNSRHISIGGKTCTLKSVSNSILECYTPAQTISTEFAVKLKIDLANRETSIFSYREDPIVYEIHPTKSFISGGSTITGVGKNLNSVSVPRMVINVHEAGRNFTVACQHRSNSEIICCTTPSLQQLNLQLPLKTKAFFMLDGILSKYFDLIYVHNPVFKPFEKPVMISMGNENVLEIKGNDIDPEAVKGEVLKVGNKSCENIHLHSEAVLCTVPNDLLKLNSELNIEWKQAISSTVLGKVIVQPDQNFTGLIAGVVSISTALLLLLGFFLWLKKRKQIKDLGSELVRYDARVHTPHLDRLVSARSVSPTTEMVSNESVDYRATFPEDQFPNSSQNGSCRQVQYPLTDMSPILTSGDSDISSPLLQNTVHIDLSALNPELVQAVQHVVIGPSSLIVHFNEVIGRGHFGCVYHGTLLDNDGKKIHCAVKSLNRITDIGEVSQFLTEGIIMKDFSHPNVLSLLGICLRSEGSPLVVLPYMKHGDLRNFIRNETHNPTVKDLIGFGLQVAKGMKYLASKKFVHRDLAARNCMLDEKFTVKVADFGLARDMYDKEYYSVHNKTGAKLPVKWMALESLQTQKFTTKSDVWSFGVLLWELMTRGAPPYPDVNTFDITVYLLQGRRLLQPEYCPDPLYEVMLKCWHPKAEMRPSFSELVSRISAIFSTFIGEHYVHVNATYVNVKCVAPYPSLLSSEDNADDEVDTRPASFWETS
# procedure summary: Test C: inhibition of the autophosphorylation of MET, ELISA technique (pppY1230, 1234, 1235), MKN45 cells
measure name: IC50

// solved cases for IC50 follow
• CC(Oc1ccc2nc(NC(=O)NCCN3CCCC3)sc2c1)c1c(F)ccc(Cl)c1Cl (centres unmarked) [Example 120] = < 500 nM
• CC(Oc1ccc2nc(NC(=O)NCCN3CCOCC3)[nH]c2c1)c1cc(F)ccc1Cl (centres unmarked) = 500 to 10000 nM
• CC(Oc1ccc2nc(NC(=O)NCCCN3CCCCCC3)sc2c1)c1c(Cl)ccc(F)c1Cl (centres unmarked) = < 500 nM

Query :: // lookup IC50 for CC(Oc1cc2sc(NC(=O)NCCN(C)C(=O)OC(C)(C)C)nc2cc1F)c1c(Cl)ccc(F)c1Cl (centres unmarked)
Result :: 500 to 10000 nM

Query :: Same thing, different compound: CC(Oc1cc2sc(NC(=O)NCCNC(=O)OC(C)(C)C)nc2cc1F)c1c(Cl)ccc(F)c1Cl (centres unmarked)
Result :: 500 to 10000 nM

Query :: Same thing, different compound: CC(Oc1cc2sc(NC(=O)NC3CC3)nc2cc1F)c1c(Cl)ccc(F)c1Cl (centres unmarked)
Result :: < 500 nM

Query :: Same thing, different compound: COCCCNC(=O)Nc1nc2cc(F)c(OC(C)c3c(Cl)ccc(F)c3Cl)cc2s1 (centres unmarked)
Result :: < 500 nM

Query :: Same thing, different compound: CC(Oc1cc2sc(NC(=O)NCC(=O)N3CCN(C)CC3)nc2cc1F)c1c(Cl)ccc(F)c1Cl (centres unmarked)
Result :: < 500 nM

Query :: Same thing, different compound: CC(Oc1cc2sc(NC(=O)NCCN3CCOCC3)nc2cc1F)c1c(Cl)ccc(F)c1Cl (centres unmarked)
Result :: < 500 nM

Query :: Same thing, different compound: CCN1CCN(CCNC(=O)Nc2nc3cc(F)c(OC(C)c4c(Cl)ccc(F)c4Cl)cc3s2)CC1 (single isomer, unassigned) [Example 101]
Result :: < 500 nM

Query :: Same thing, different compound: CC(Oc1ccc2nc(NC(=O)NCc3ccccn3)sc2c1)c1c(Cl)ccc(F)c1Cl (centres unmarked)
Result :: 500 to 10000 nM

---

# target of assay: MET (Homo sapiens)
# Construct: endogenous in cells
# procedure summary: Test C: inhibition of the autophosphorylation of MET, ELISA technique (pppY1230, 1234, 1235), MKN45 cells
measure name: IC50

// solved cases for IC50 follow
* CC(Oc1ccc2nc(NC(=O)NCCN3CCCC3)sc2c1)c1c(Cl)ccc(Cl)c1Cl (stereo not drawn) | 0.5 to 10 µM
* CC(Oc1ccc2nc(NC(=O)NCCN3CCOCC3)[nH]c2c1)c1c(Cl)cccc1Cl (stereo not drawn) | 0.5 to 10 µM

Please examine the following record next.
Query :: // lookup IC50 for CNCCNC(=O)Nc1nc2cc(F)c(OC(C)c3c(Cl)ccc(F)c3Cl)cc2s1 (stereo not drawn)
Result :: < 0.5 µM

---

# target of assay: MET (Homo sapiens, UniProt P08581)
# Construct: endogenous in cells
# procedure summary: Test C: inhibition of the autophosphorylation of MET, ELISA technique (pppY1230, 1234, 1235), MKN45 cells
pIC50: −log10 of the molar value.
measure name: pIC50

// solved cases for pIC50 follow
• CC(Oc1cc2sc(NC(=O)NCCN3CCOCC3)nc2cc1F)c1c(Cl)cccc1Cl (centres unmarked) [Example 29] = > 6.30
• CC(Oc1cc2sc(NC(=O)NCCN)nc2cc1F)c1c(Cl)ccc(F)c1Cl (single isomer, unassigned) [Example 89] = > 6.30
• CCN(CC)CCNC(=O)Nc1nc2ccc(OC(C)c3c(Cl)ccc(F)c3Cl)cc2s1 (centres unmarked) [Example 82] = > 6.30
• CC(Oc1cc2sc(NC(=O)NCCCN3CCCC3=O)nc2cc1F)c1c(Cl)ccc(F)c1Cl (centres unmarked) [Example 78] = > 6.30
• CC(Oc1cc2sc(NC(=O)NCCN3CCOCC3)nc2cc1F)c1c(F)ccc(Cl)c1Cl (centres unmarked) [Example 111] = 5.00 to 6.30

Query :: // lookup pIC50 for C[C@@H](Oc1cc2sc(NC(=O)NCCN3CCOCC3)nc2cc1F)c1c(Cl)ccc(F)c1Cl (single isomer, unassigned) [Example 32]
Result :: > 6.30

Query :: Same thing, different molecule: CC(Oc1ccc2nc(NC(=O)NCCN3CCOCC3)sc2c1)c1c(Cl)ccc(F)c1Cl (single isomer, unassigned) [Example 25]
Result :: > 6.30

Query :: Same thing, different molecule: CC(Oc1cc2sc(NC(=O)NCCN3CCOCC3)nc2cc1F)c1c(F)ccc(Cl)c1Cl (single isomer, unassigned) [Example 113]
Result :: > 6.30

Query :: Same thing, different molecule: CC(Oc1cc2sc(NC(=O)NCCO)nc2cc1F)c1c(Cl)ccc(F)c1Cl (centres unmarked) [Example 98]
Result :: > 6.30

Query :: Same thing, different molecule: CC(Oc1cc2sc(NC(=O)NCCN3CCN(C)CC3)nc2cc1F)c1c(F)ccc(Cl)c1Cl (single isomer, unassigned) [Example 117]
Result :: 5.00 to 6.30

---

Known pIC50 of a selection of molecules
# target of assay: MET (Homo sapiens)
# Construct: endogenous in cells
# procedure summary: Test C: inhibition of the autophosphorylation of MET, ELISA technique (pppY1230, 1234, 1235), MKN45 cells
pIC50: −log10 of the molar value.

- CC(Oc1ccc2nc(NC(=O)NCCCN3C(C)CCCC3C)sc2c1)c1c(Cl)ccc(F)c1Cl (stereo not shown): 5.00 to 6.30
- CC(Oc1ccc2nc(NC(=O)NCCCN3CCCC3=O)sc2c1)c1c(Cl)ccc(F)c1Cl (stereo not shown): > 6.30
- CC(Oc1cc2sc(NC(=O)NCCN3CCOCC3)nc2cc1Cl)c1c(Cl)ccc(F)c1Cl (stereo not shown): 5.00 to 6.30

Please examine the following record next.
Query :: Query pIC50 on MET (Homo sapiens) for CC(Oc1ccc2nc(NC(=O)NCCCN3CCN(Cc4c(F)cccc4Cl)CC3)sc2c1)c1c(Cl)ccc(F)c1Cl (stereo not shown)
Result :: 5.00 to 6.30
